# protocol-summary: plasma pharmacokinetics in patients (HPLC–MS/MS, non-compartmental analysis)
# Format: in vivo, human
# condition-summary: human, plasma, oral, Dose-level 1: dacomitinib 30 mg QD + PD-0325901 2 mg BID; Cycle 2 Day 1; n = 6; read-out: AUC0-12h PD-0325901, mean (CV%)
measured-metric: AUC(0-t) (ng·h/mL)
The figure you give is taken to be in ng·h/mL; do not add the unit.

IN: Which AUC(0-t) is reported for this compound? "O=C(NOC[C@H](O)CO)c1ccc(F)c(F)c1Nc1ccc(I)cc1F"
OUT: 210

----------
# protocol-summary: plasma pharmacokinetics in patients (HPLC–MS/MS, non-compartmental analysis)
# Assay type: in vivo, human
# condition-summary: human, plasma, oral, Dose-level -1: dacomitinib 15 mg QD + PD-0325901 2 mg BID; Cycle 2 Day 1; n = 3; read-out: Cmax dacomitinib, mean (CV%)
measured-metric: Cmax (ng/mL)
The figure you give is taken to be in ng/mL; do not add the unit.

IN: Which Cmax is reported for this compound? "COc1cc2ncnc(Nc3ccc(F)c(Cl)c3)c2cc1NC(=O)/C=C/CN1CCCCC1"
OUT: 26.3

----------
# protocol-summary: plasma pharmacokinetics in patients (HPLC–MS/MS, non-compartmental analysis)
# Assay type: in vivo, human
# condition-summary: human, plasma, oral, 15 mg, All 15 mg doses; Cycle 2 Day 1; n = 18; read-out: AUC0-24h dacomitinib, mean (CV%)
measured-metric: AUC(0-t) (ng·h/mL)
The figure you give is taken to be in ng·h/mL; do not add the unit.

IN: Which AUC(0-t) is reported for this compound? COc1cc2ncnc(Nc3ccc(F)c(Cl)c3)c2cc1NC(=O)/C=C/CN1CCCCC1 [dacomitinib]
OUT: 616

----------
# protocol-summary: plasma pharmacokinetics in patients (HPLC–MS/MS, non-compartmental analysis)
# Format: in vivo, human
# condition-summary: human, plasma, oral, Dose-level 1: dacomitinib 30 mg QD + PD-0325901 2 mg BID; Cycle 1 Day 1; n = 6; read-out: AUC0-12h PD-0325901, mean (CV%)
# Experimental: For pharmacokinetic analyses, serial blood samples were obtained from all patients prior to treatment administration on day 1, and 1, 2, 3, 4, 6, 8, 12, 24, 72 and 144 h after the first dose. […] Transitions from m/z 480 to 329 and m/z 489 to 255 were monitored for the detection of dacomitinib and PD-0325901, respectively. Stable isotope-labelled internal standards were used for the quantification. […]
measured-metric: AUC(0-t) (ng·h/mL)
The figure you give is taken to be in ng·h/mL; do not add the unit.

IN: Which AUC(0-t) is reported for this compound? "O=C(NOC[C@H](O)CO)c1ccc(F)c(F)c1Nc1ccc(I)cc1F"
OUT: 188

----------
# protocol-summary: plasma pharmacokinetics in patients (HPLC–MS/MS, non-compartmental analysis)
# Assay type: in vivo, human
# condition-summary: human, plasma, oral, Dose-level 2: dacomitinib 15 mg QD + PD-0325901 3 mg BID; Cycle 1 Day 1; n = 6; read-out: Cmax dacomitinib, mean (CV%)
measured-metric: Cmax (ng/mL)
The figure you give is taken to be in ng/mL; do not add the unit.

IN: Which Cmax is reported for this molecule? "COc1cc2ncnc(Nc3ccc(F)c(Cl)c3)c2cc1NC(=O)/C=C/CN1CCCCC1"
OUT: 6.7

----------
# protocol-summary: plasma pharmacokinetics in patients (HPLC–MS/MS, non-compartmental analysis)
# Format: in vivo, human
# condition-summary: human, plasma, oral, Dose-level 8: dacomitinib 30 mg (5/2) QD + PD-0325901 5 mg (5/2) BID; last day of concomitant use of both drugs; n=2; read-out: Cmax dacomitinib, mean (CV%)
measured-metric: Cmax (ng/mL)
The figure you give is taken to be in ng/mL; do not add the unit.

IN: Which Cmax is reported for this molecule? "COc1cc2ncnc(Nc3ccc(F)c(Cl)c3)c2cc1NC(=O)/C=C/CN1CCCCC1"
OUT: 55.9

----------
# protocol-summary: plasma pharmacokinetics in patients (HPLC–MS/MS, non-compartmental analysis)
# Assay type: in vivo, human
# condition-summary: human, plasma, oral, Dose-level 4: dacomitinib 15 mg QD + PD-0325901 5 mg BID; Cycle 2 Day 1; n = 3; read-out: tmax dacomitinib, mean
measured-metric: Tmax (h)
The figure you give is taken to be in h; do not add the unit.

IN: Which Tmax is reported for this molecule? "COc1cc2ncnc(Nc3ccc(F)c(Cl)c3)c2cc1NC(=O)/C=C/CN1CCCCC1"
OUT: 5

----------
# protocol-summary: plasma pharmacokinetics in patients (HPLC–MS/MS, non-compartmental analysis)
# Assay type: in vivo, human
# condition-summary: human, plasma, oral, Dose-level 1: dacomitinib 30 mg QD + PD-0325901 2 mg BID; Cycle 2 Day 1; n = 6; read-out: Cmax PD-0325901, mean (CV%)
measured-metric: Cmax (ng/mL)
The figure you give is taken to be in ng/mL; do not add the unit.

IN: Which Cmax is reported for this compound? O=C(NOC[C@H](O)CO)c1ccc(F)c(F)c1Nc1ccc(I)cc1F [PD-0325901]
OUT: 58.3

----------
# protocol-summary: plasma pharmacokinetics in patients (HPLC–MS/MS, non-compartmental analysis)
# Format: in vivo, human
# condition-summary: human, plasma, oral, Dose-level 2: dacomitinib 15 mg QD + PD-0325901 3 mg BID; Cycle 2 Day 1; n = 5; read-out: AUC0-24h dacomitinib, mean (CV%)
measured-metric: AUC(0-t) (ng·h/mL)
The figure you give is taken to be in ng·h/mL; do not add the unit.

IN: Which AUC(0-t) is reported for this compound? "COc1cc2ncnc(Nc3ccc(F)c(Cl)c3)c2cc1NC(=O)/C=C/CN1CCCCC1"
OUT: 549

----------
# protocol-summary: plasma pharmacokinetics in patients (HPLC–MS/MS, non-compartmental analysis)
# Type: in vivo, human
# condition-summary: human, plasma, oral, Dose-level 3: dacomitinib 15 mg QD + PD-0325901 4 mg BID; Cycle 2 Day 1; n = 2; read-out: AUC0-12h PD-0325901, mean (CV%)
measured-metric: AUC(0-t) (ng·h/mL)
The figure you give is taken to be in ng·h/mL; do not add the unit.

IN: Which AUC(0-t) is reported for this compound? "O=C(NOC[C@H](O)CO)c1ccc(F)c(F)c1Nc1ccc(I)cc1F"
OUT: 376

----------
# protocol-summary: plasma pharmacokinetics in patients (HPLC–MS/MS, non-compartmental analysis)
# Format: in vivo, human
# condition-summary: human, plasma, oral, Dose-level 8: dacomitinib 30 mg (5/2) QD + PD-0325901 5 mg (5/2) BID; Cycle 1 Day 1; n = 5; read-out: Cmax dacomitinib, mean (CV%)
measured-metric: Cmax (ng/mL)
The figure you give is taken to be in ng/mL; do not add the unit.

IN: Which Cmax is reported for this molecule? COc1cc2ncnc(Nc3ccc(F)c(Cl)c3)c2cc1NC(=O)/C=C/CN1CCCCC1 [dacomitinib]
OUT: 14.2

----------
# protocol-summary: plasma pharmacokinetics in patients (HPLC–MS/MS, non-compartmental analysis)
# Type: in vivo, human
# condition-summary: human, plasma, oral, Dose-level 7: dacomitinib 30 mg (5/2) QD + PD-0325901 6 mg (5/2) BID; Cycle 1 Day 1; n = 3; read-out: tmax dacomitinib, mean
measured-metric: Tmax (h)
The figure you give is taken to be in h; do not add the unit.

IN: Which Tmax is reported for this compound? "COc1cc2ncnc(Nc3ccc(F)c(Cl)c3)c2cc1NC(=O)/C=C/CN1CCCCC1"
OUT: 13.3

----------
# protocol-summary: plasma pharmacokinetics in patients (HPLC–MS/MS, non-compartmental analysis)
# Format: in vivo, human
# condition-summary: human, plasma, oral, Dose-level 3: dacomitinib 15 mg QD + PD-0325901 4 mg BID; Cycle 2 Day 1; n = 2; read-out: AUC0-24h dacomitinib, mean (CV%)
measured-metric: AUC(0-t) (ng·h/mL)
The figure you give is taken to be in ng·h/mL; do not add the unit.

IN: Which AUC(0-t) is reported for this compound? COc1cc2ncnc(Nc3ccc(F)c(Cl)c3)c2cc1NC(=O)/C=C/CN1CCCCC1 [dacomitinib]
OUT: 262

----------
# protocol-summary: plasma pharmacokinetics in patients (HPLC–MS/MS, non-compartmental analysis)
# Format: in vivo, human
# condition-summary: human, plasma, oral, Dose-level 5: dacomitinib 15 mg QD + PD-0325901 6 mg BID; Cycle 2 Day 1; n = 5; read-out: AUC0-12h PD-0325901, mean (CV%)
# Description: For pharmacokinetic analyses, serial blood samples were obtained from all patients prior to treatment administration on day 1, and 1, 2, 3, 4, 6, 8, 12, 24, 72 and 144 h after the first dose. […] Transitions from m/z 480 to 329 and m/z 489 to 255 were monitored for the detection of dacomitinib and PD-0325901, respectively. Stable isotope-labelled internal standards were used for the quantification. […]
measured-metric: AUC(0-t) (ng·h/mL)
The figure you give is taken to be in ng·h/mL; do not add the unit.

IN: Which AUC(0-t) is reported for this molecule? O=C(NOC[C@H](O)CO)c1ccc(F)c(F)c1Nc1ccc(I)cc1F [PD-0325901]
OUT: 855
